assay: Clearance in Balb/c mouse at 2 mg/kg, iv; type: ADME, organism-based; details: in vivo
endpoint: clearance (mL/min/kg)

> print(dat)
                            structurestring   endpoint  numericvalue
1  C[C@@](O)(CS(C)(=O)=O)C(=O)N[C@@H]1CC[C@@]2(S(=O)(=O)c3ccc(F)cc3)c3ccc(C(F)(C(F)(F)F)C(F)(F)F)nc3CC[C@@H]12  clearance           2.1

---

assay: Clearance in Sprague-Dawley rat at 2 mg/kg, iv; type: ADME, organism-based; conditions: in vivo
endpoint: clearance (mL/min/kg)

> print(dat)
                            structurestring   endpoint  unitslabel  numericvalue
1  C[C@@](O)(CS(C)(=O)=O)C(=O)N[C@@H]1CC[C@@]2(S(=O)(=O)c3ccc(F)cc3)c3ccc(C(F)(C(F)(F)F)C(F)(F)F)nc3CC[C@@H]12  clearance   mL/min/kg           1.9

Origin of measurements: ChEMBL document CHEMBL4706752
